System: R318W PM 1 (R318W Human / R298W C. elegans point mutation)
method notes: C. elegans model growth assay (worm body area), R318W PM 1 line
Type: in vivo
setup conditions: 2 μM, Young Adult
reported endpoint: % Increase size (compared to untreated) (%)

molecule: CC(O)(CS(=O)(=O)c1ccc(F)cc1)C(=O)Nc1ccc(C#N)c(C(F)(F)F)c1 (stereo not drawn)
measured number: 15.14

molecule: C[C@H](NCc1ccc(OCc2cccc(F)c2)cc1)C(N)=O
measured number: 16.21

molecule: CC(C)(C)NC(=O)[C@H]1CC[C@H]2[C@@H]3CC[C@H]4NC(=O)C=C[C@]4(C)[C@H]3CC[C@]12C [Compound 1, finasteride]
measured number: 12.70

molecule: Cc1nc2n(c(=O)c1CCN1CCC(c3noc4cc(F)ccc34)CC1)CCCC2O (stereo not drawn)
measured number: 14.09

molecule: Cc1ccc2c([nH]c(=O)c3c(=O)cc(C(=O)OCCC(C)C)oc32)c1C
measured number: 16.84

molecule: CCn1cc(C(=O)O)c(=O)c2cnc(N3CCNCC3)nc21
measured number: 18.05

---

Here the recorded % Increase size (compared to untreated) is given for each entry.
System: R318W PM 1 (R318W Human / R298W C. elegans point mutation)
method notes: C. elegans model growth assay (worm body area), R318W PM 1 line
Type: in vivo
setup conditions: 200 nM, Adult (day 5)
Excerpt: Five lines of GMPPA disorder models were generated in C. elegans using CRISPR/Cas9 gene editing: • One line GMPPA Human (Y47DA9.1 C. elegans) knockout (GMPPA KO) • Two lines T292P Human (S272P C. elegans) point mutation (T292P PM1, T292P PM2) • Two lines R318W Human (R298W C. elegans) point mutation (R318W PM1, R318W PM2) […]

molecule: Cc1ccc2c([nH]c(=O)c3c(=O)cc(C(=O)OCCC(C)C)oc32)c1C
% Increase size (compared to untreated): 12.15%
//
molecule: Cc1nc2n(c(=O)c1CCN1CCC(c3noc4cc(F)ccc34)CC1)CCCC2O (stereo not shown)
% Increase size (compared to untreated): 11.03%
//
molecule: C[C@H](NCc1ccc(OCc2cccc(F)c2)cc1)C(N)=O
% Increase size (compared to untreated): 9.35%
//
molecule: CC(C)(C)NC(=O)[C@H]1CC[C@H]2[C@@H]3CC[C@H]4NC(=O)C=C[C@]4(C)[C@H]3CC[C@]12C [Compound 1, finasteride]
% Increase size (compared to untreated): 7.28%

Reference source: patent US20240398835A1
